Target: monkey DLL3 on CHO-K1-cyno DLL3 cells (cynomolgus monkey)
Sequence (chain, as listed by the source limits assumed): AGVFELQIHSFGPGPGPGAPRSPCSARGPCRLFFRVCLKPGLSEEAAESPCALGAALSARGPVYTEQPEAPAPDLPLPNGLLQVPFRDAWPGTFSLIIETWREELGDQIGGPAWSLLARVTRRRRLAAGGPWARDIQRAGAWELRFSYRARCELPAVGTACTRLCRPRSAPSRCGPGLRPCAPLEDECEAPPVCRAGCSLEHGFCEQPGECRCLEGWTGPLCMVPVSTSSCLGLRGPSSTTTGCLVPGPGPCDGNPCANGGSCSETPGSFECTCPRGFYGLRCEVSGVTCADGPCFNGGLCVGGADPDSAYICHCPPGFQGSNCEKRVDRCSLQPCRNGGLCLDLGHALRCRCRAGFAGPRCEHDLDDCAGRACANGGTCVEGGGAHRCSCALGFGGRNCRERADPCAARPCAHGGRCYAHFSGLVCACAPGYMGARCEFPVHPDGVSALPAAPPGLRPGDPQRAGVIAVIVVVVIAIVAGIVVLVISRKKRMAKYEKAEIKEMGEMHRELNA
Assay: FACS, CHO-K1-cyno DLL3 cells, 0.16 nM antibody
Observable: MFI (MFI)
Write it as a number; the unit MFI goes unstated.

Example binders with recorded MFI:
{"Binder": "Hab008L1H5-hFc (scFv, part only; not given: VL-VH linker and human IgG1 Fc, V domains shown, not shown: another chain or arm of the molecule; a dimerising Fc or GST; small tags and cut ends) VL: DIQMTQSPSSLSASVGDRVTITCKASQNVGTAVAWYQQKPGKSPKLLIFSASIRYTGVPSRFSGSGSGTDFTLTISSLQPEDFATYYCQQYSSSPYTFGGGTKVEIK VH: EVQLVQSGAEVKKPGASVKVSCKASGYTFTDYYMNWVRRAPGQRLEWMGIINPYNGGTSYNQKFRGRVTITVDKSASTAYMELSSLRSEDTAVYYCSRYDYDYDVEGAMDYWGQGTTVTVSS", "Units Label": "MFI", "Recorded Value": 711}
{"Binder": "Hab015VL5VH1b-hFc (scFv, part only; not given: VL-VH linker and human IgG1 Fc, V domains shown, not shown: another chain or arm of the molecule; a dimerising Fc or GST; small tags and cut ends) VL: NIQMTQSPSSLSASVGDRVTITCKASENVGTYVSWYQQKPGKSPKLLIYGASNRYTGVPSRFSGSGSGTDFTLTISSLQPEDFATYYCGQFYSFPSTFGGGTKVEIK VH: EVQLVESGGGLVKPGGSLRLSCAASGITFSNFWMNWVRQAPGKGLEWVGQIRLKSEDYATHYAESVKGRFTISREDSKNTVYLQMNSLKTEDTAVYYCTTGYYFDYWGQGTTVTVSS", "Units Label": "MFI", "Recorded Value": 1140}

MFI measured on Hab015VL5VH6a-hFc (scFv, part only; not given: scFv linker and human IgG1 Fc, V domains shown, not shown: another chain or arm of the molecule; a dimerising Fc or GST; small tags and cut ends) VL: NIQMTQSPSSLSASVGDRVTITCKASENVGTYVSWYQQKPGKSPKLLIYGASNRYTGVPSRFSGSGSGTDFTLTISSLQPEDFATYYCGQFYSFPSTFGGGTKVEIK VH: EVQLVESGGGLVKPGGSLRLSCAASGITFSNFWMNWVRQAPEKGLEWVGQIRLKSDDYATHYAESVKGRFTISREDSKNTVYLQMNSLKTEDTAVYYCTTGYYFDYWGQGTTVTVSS = 1150
